B1: PTPRD (parent)
chain: FICQATGDPRPKIVWNKKGKKVSN

Variants of: B1
Test name: protein stability index of a GFP-peptide fusion (GPS, HEK-293T) (PSI 1-6); higher = more stable;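 also: lentivirally expressed fusions sorted by FACS into six bins by GFP to DsRed ratio, PSI derived from sequencing read proportions per bin multiplied by bin number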
Measurement parameters: c terminus: a fixed tail appended
Reported property: protein stability index
Provide a numeric answer; units are not to be included.

Example cases with answers are listed next.
{"Mutation descriptor": "K18N", "Reported property": "protein stability index", "Recorded number": 1.98}
{"Mutation descriptor": "P11S", "Reported property": "protein stability index", "Recorded number": 2.18}
{"Mutation descriptor": "R10K", "Reported property": "protein stability index", "Recorded number": 2.95}

Attention now turns to another entry.
Q: Answer with reported protein stability index of T6D
A: 1.71

All figures here come from the supplement of paper PMC10567573.
